This section lists pKd readings for Transthyretin (Homo sapiens, UniProt P02766).
Recall that pKd is obtained by taking minus log10 of the concentration measured in molar.

O=C(O)COC(=O)Cc1ccccc1Nc1c(Cl)cccc1Cl	5.92

pKd of Cc1ccc(C)c(OCCCC(C)(C)C(=O)O)c1 on Transthyretin (Homo sapiens, UniProt P02766)? 7.00

* * *

Test: Half life in plasma (unknown origin)
Type: ADME, cell-free
result.type: half-life (h)
Expressed in h, but write only the number.

// lookup half-life for Cc1ccc(C)c(OCCCC(C)(C)C(=O)O)c1 [GEMFIBROZIL] 1.5

* * *

Target: Transthyretin (Homo sapiens, UniProt P02766)
result.type: Kd (nM)
Expressed in nM, but write only the number.

Kd of O=c1cc(-c2ccc(O)cc2)oc2cc(O)cc(O)c12 [APIGENIN] on Transthyretin (Homo sapiens, UniProt P02766)? 250

Kd of Cc1ccc(Cl)c(Nc2ccccc2C(=O)O)c1Cl [MECLOFENAMIC ACID] on Transthyretin (Homo sapiens, UniProt P02766)? 480

Kd of O=c1cc(-c2ccc(O)c(O)c2)oc2cc(O)cc(O)c12 [LUTEOLIN] on Transthyretin (Homo sapiens, UniProt P02766)? 70

All values here come from ChEMBL document CHEMBL3600283.
